Biological target: Recombitant HIV Protease (Human immunodeficiency virus type 1 group M subtype B)
Construct: Recombitant HIV Protease
Test: Selectivity assay: recombinant HIV protease
Conditions: selectivity table
measurement name: IC50

Entry under review: CC(C)C(NC(=O)C1Cc2ccccc2CN1C(=O)[C@@H](NC(=O)c1ccc(C(=O)NS(=O)(=O)c2ccc(Cl)cc2)cc1)C(C)C)C(=O)C(F)(F)F (stereo partly shown) [p-[p-Cl(C6 H4)SO2 NHCO](C6 H4)CO] . Reported IC50? > 66.7 µM

====

measurement name: IC50

Write down the reported IC50 of CC(C)C(NC(=O)C1Cc2ccccc2CN1C(=O)[C@@H](NC(=O)c1ccc(C(=O)NS(=O)(=O)c2ccc(Cl)cc2)cc1)C(C)C)C(=O)C(F)(F)F (stereo partly shown) [p-[p-Cl(C6 H4)SO2 NHCO](C6 H4)CO] , test system: Thrombin (Homo sapiens, UniProt P00734). > 8.01 µM

====

pIC50: −log10 of the molar value.
measurement name: pIC50

Write down the reported pIC50 of CC(C)C(NC(=O)C1Cc2ccccc2CN1C(=O)[C@@H](NC(=O)c1ccc(C(=O)NS(=O)(=O)c2ccc(Cl)cc2)cc1)C(C)C)C(=O)C(F)(F)F (stereo partly shown) [p-[p-Cl(C6 H4)SO2 NHCO](C6 H4)CO] , test system: UniProtKB P00747. < 5.10

====

pIC50: −log10 of the molar value.
measurement name: pIC50

Write down the reported pIC50 of CC(C)C(NC(=O)C1Cc2ccccc2CN1C(=O)[C@@H](NC(=O)c1ccc(C(=O)NS(=O)(=O)c2ccc(Cl)cc2)cc1)C(C)C)C(=O)C(F)(F)F (stereo partly shown) [p-[p-Cl(C6 H4)SO2 NHCO](C6 H4)CO] , test system: Chymotrypsin (Bos taurus). < 5.10

All values here come from patent US5232928A.
